Data provenance is patent US20040142979A1.

Give measured pKi for each item. Keep answers brief.
# testedOn: Human recombinant MMP-13 (Homo sapiens, UniProt P45452)
# testSummary: In vitro MMP inhibition analysis (fluorogenic peptide substrate), MMP-13
# conditionParameters: human recombinant enzyme; 4 μM substrate (A); apparent Ki without substrate correction
Give bare numbers, as −log10 of the molar value.

Some solved entries appear below for comparison.
CCCCc1ccc(C(=O)C2CCN(c3nc4ccc(S(=O)(=O)C5(C(=O)NO)CCOCC5)cc4s3)CC2)s1 [Example 52]; 8.80
CC(C)CN(C)C(=O)Cc1ccc(-c2ccc(S(=O)(=O)C3(C(=O)NO)CCOCC3)cn2)cc1 [Example 71]; 8.71
O=C(NO)C1(S(=O)(=O)c2ccc3nc(N4CCC(Oc5ccc(OC(F)(F)F)cc5)CC4)sc3c2)CCOCC1 [Example 56]; 8.46
CCN(CC)C(=O)c1ccc(-c2ccc(S(=O)(=O)C3(C(=O)NO)CCOCC3)cn2)cc1 [Example 79]; 6.22
CCCCNC(=O)Cc1ccc(-c2ccc(S(=O)(=O)C3(C(=O)NO)CCOCC3)cn2)cc1 [Example 73]; 7.73

Field: pKi. Fill in for each record below.
1. O=C(NO)C1(S(=O)(=O)c2ccc3nc(-c4ccc(Cl)s4)sc3c2)CCOCC1 [Example 59]
2. O=C(NO)C1(S(=O)(=O)c2ccc3nc(-c4ccc(C(F)(F)F)cc4)sc3c2)CCOCC1 [Example 57]
3. O=C(NO)C1(S(=O)(=O)c2ccc(-c3ccc(CCC(F)(F)C(F)(F)F)cn3)s2)CCOCC1 [Example 49]
4. CCCc1ccc(-c2nc3ccc(S(=O)(=O)C4(C(=O)NO)CCOCC4)cc3s2)cc1 [Example 53]
5. CCCCCc1ccc(-c2ccc(S(=O)(=O)C3(C(=O)NO)CCOCC3)cn2)cc1 [Example 45]
6. CCCCNC(=O)c1ccc(-c2ccc(S(=O)(=O)C3(C(=O)NO)CCOCC3)cn2)cc1 [Example 76]
7. CC(C)Cc1ncc(-c2nc3ccc(S(=O)(=O)C4(C(=O)NO)CCOCC4)cc3s2)s1 [Example 54]

Return:
1: 9.23; 2: 9.42; 3: 9.09; 4: 9.50; 5: 8.92; 6: 8.25; 7: 8.56

Field: pKi. Fill in for each record below.
1. CN(C(=O)c1ccc(-c2ccc(S(=O)(=O)C3(C(=O)NO)CCOCC3)cn2)cc1)c1ccc(OC(F)(F)F)cc1 [Example 81]
2. O=C(NO)C1(S(=O)(=O)c2ccc3nc(-c4ccc5c(c4)OCO5)sc3c2)CCOCC1 [Example 65]
3. CN(C(=O)c1ccc(-c2ccc(S(=O)(=O)C3(C(=O)NO)CCOCC3)cn2)cc1)c1ccccc1 [Example 78]

Return:
1. 6.58
2. 8.98
3. 6.35

Field: pKi. Fill in for each record below.
1. COCCN1CCC(C(=O)NO)(S(=O)(=O)c2ccc3nc(-c4ccc(OC(F)(F)F)cc4)sc3c2)CC1 [Example 63]
2. O=C(NO)C1(S(=O)(=O)c2ccc(-c3ccc(OC(F)(F)F)cc3)nc2)CCOCC1 [Example 84]
3. CCCCN(C)C(=O)Cc1ccc(-c2ccc(S(=O)(=O)C3(C(=O)NO)CCOCC3)cn2)cc1 [Example 74]
4. CCOc1ccc(-c2nc3ccc(S(=O)(=O)C4(C(=O)NO)CCOCC4)cc3s2)cc1 [Example 66]

Return:
[9.51, 9.10, 8.72, 10.09]
